What selectivity ratio was measured for each of the following?
assay: Selectivity index, ratio of CC50 for human MT4 cells to EC50 for wild type HIV-1 NL4-3 infected in human MT4 cells; type: toxicity, cell-based; conditions: read-out: Ratio CC50/EC50

Q: Param item = CCc1c(C(C)c2c(F)cccc2F)nc(SC2CCCC2)[nH]c1=O (racemic) ; retrieve measured selectivity ratio.
A: > 19

Q: Another compound to check: CCCSc1nc(Cc2c(F)cccc2Cl)c(C)c(=O)[nH]1
A: > 884

Q: Another compound to check: CCC(C)Sc1nc(Cc2c(F)cccc2Cl)cc(=O)[nH]1 (stereo not given)
A: > 475

Q: Another compound to check: Cc1c(C(C)c2c(F)cccc2F)nc(SC(C)C)[nH]c1=O (racemic)
A: > 3000

Q: Another compound to check: CC(C)Sc1nc(C(C)c2c(F)cccc2Cl)cc(=O)[nH]1 (racemic)
A: > 37500

Q: Another compound to check: CCCSc1nc(C(C)c2c(F)cccc2Cl)c(CC)c(=O)[nH]1 (racemic)
A: > 107

Q: Another compound to check: CC[C@H](C)Sc1nc([C@@H](C)c2c(F)cccc2Cl)cc(=O)[nH]1
A: > 507

Q: Another compound to check: Cc1c(C(C)c2c(F)cccc2F)nc(SC2CCCC2)[nH]c1=O (racemic)
A: > 3000

Q: Another compound to check: CCc1c(C(C)c2c(F)cccc2F)nc(SC(C)CC)[nH]c1=O (racemic)
A: > 21

Q: Another compound to check: CC[C@@H](C)Sc1nc([C@H](C)c2c(F)cccc2Cl)cc(=O)[nH]1
A: > 103000
